test system: JAK-STAT signalling in HeLa cells; test: JAK-STAT signalling assay (OSM-triggered pSTAT1(2)-luciferase reporter in HeLa cells); assay type: cell-based; settings: Homo sapiens; HeLa cells, OSM-triggered pSTAT1(2)-luciferase reporter; read-out: STAT signalling EC50
quantity-name: EC50

Exam item: Please give the documented EC50 of N#CCc1ccc(NCc2ccc(-c3cccc4nc(NC(=O)C5CC5)nn34)cc2)cc1 [Compound 224]
Marked response: 101 to 500 nM

Exam item: Please give the documented EC50 of O=C(Nc1nc2cccc(-c3ccc(COc4ccccc4)cc3)n2n1)C1CC1 [Compound 238]
Marked response: 501 to 1000 nM

Exam item: Please give the documented EC50 of O=C(Nc1nc2cccc(-c3ccc(C(=O)N4CCC(C(F)(F)F)CC4)cc3)n2n1)C1CC1 [Compound 148]
Marked response: > 1000 nM

Exam item: Please give the documented EC50 of O=C(Nc1nc2cccc(-c3ccc(OCc4ccccc4)cc3)n2n1)C1CC1 [Compound 12]
Marked response: 101 to 500 nM

Exam item: Please give the documented EC50 of O=C(Nc1nc2cccc(-c3ccc(CC(=O)N4CCC(C(F)(F)F)CC4)cc3)n2n1)C1CC1 [Compound 319]
Marked response: 501 to 1000 nM

Exam item: Please give the documented EC50 of O=C(Nc1ccc(-c2cccc3nc(NC(=O)C4CC4)nn23)cc1)c1ccccc1 [Compound 21]
Marked response: > 1000 nM

Exam item: Please give the documented EC50 of COC1CN(C(=O)Cc2ccc(-c3cccc4nc(NC(=O)C5CC5)nn34)cc2)C1 [Compound 321]
Marked response: > 1000 nM

Exam item: Please give the documented EC50 of O=C1CN(C(=O)c2ccc(-c3cccc4nc(NC(=O)C5CC5)nn34)cc2)CCN1 [Compound 277]
Marked response: > 1000 nM

Exam item: Please give the documented EC50 of CC1CCCN(C(=O)c2ccc(-c3cccc4nc(NC(=O)C5CC5)nn34)cc2)C1 (stereo not drawn) [Compound 145]
Marked response: 501 to 1000 nM

Exam item: Please give the documented EC50 of NC(=O)c1ccc(COc2ccc(-c3cccc4nc(NC(=O)C5CC5)nn34)cc2)cn1 [Compound 192]
Marked response: 101 to 500 nM

Exam item: Please give the documented EC50 of O=C(NCCc1cccnc1)c1ccc(-c2cccc3nc(NC(=O)C4CC4)nn23)cc1 [Compound 124]
Marked response: > 1000 nM

Exam item: Please give the documented EC50 of O=C(Nc1nc2cccc(-c3ccc(NS(=O)(=O)Cc4ccccc4)cc3)n2n1)C1CC1 [Compound 77]
Marked response: > 1000 nM

---

assay: Caco2 permeability (bi-directional); assay type: in vitro ADME, human; conditions: human, pH 7.4; Caco-2, ratio of PappB>A/PappA>B
quantity-name: efflux ratio at 1 h, 10 µM
Form field (numeric): enter value without unit.

Exam item: Please give the documented efflux ratio at 1 h, 10 µM of CC1CN(C(=O)c2ccc(-c3cccc4nc(NC(=O)C5CC5)nn34)cc2)CC(C)O1 (stereo not drawn)
Marked response: 9.3

Exam item: Please give the documented efflux ratio at 1 h, 10 µM of O=C(Nc1nc2cccc(-c3ccc(OCc4ncon4)cc3)n2n1)C1CC1
Marked response: 0.81

Exam item: Please give the documented efflux ratio at 1 h, 10 µM of CC1(C)CCCN(C(=O)c2ccc(-c3cccc4nc(NC(=O)C5CC5)nn34)cc2)C1
Marked response: 2

Exam item: Please give the documented efflux ratio at 1 h, 10 µM of O=C(NCCOc1ccccc1)c1ccc(-c2cccc3nc(NC(=O)C4CC4)nn23)c(F)c1
Marked response: 3.23

Exam item: Please give the documented efflux ratio at 1 h, 10 µM of O=C(NCc1cccc(F)c1)c1ccc(-c2cccc3nc(NC(=O)C4CC4)nn23)cc1
Marked response: 5.2

Exam item: Please give the documented efflux ratio at 1 h, 10 µM of O=C(NCCOc1ccccc1)c1ccc(-c2cccc3nc(NC(=O)C4CC4)nn23)cc1
Marked response: 2.55

Exam item: Please give the documented efflux ratio at 1 h, 10 µM of N#CC1CCN(C(=O)c2ccc(-c3cccc4nc(NC(=O)C5CC5)nn34)cc2)CC1
Marked response: 76.2

Exam item: Please give the documented efflux ratio at 1 h, 10 µM of CC1CCCN(C(=O)c2ccc(-c3cccc4nc(NC(=O)C5CC5)nn34)cc2)C1 (stereo not drawn)
Marked response: 2

Exam item: Please give the documented efflux ratio at 1 h, 10 µM of NC(=O)c1ccccc1NCc1ccc(-c2cccc3nc(NC(=O)C4CC4)nn23)cc1
Marked response: 6.55

Exam item: Please give the documented efflux ratio at 1 h, 10 µM of Cn1cnc(COc2ccc(-c3cccc4nc(NC(=O)C5CC5)nn34)cc2)n1
Marked response: 8.83

Exam item: Please give the documented efflux ratio at 1 h, 10 µM of Cn1ccc(COc2ccc(-c3cccc4nc(NC(=O)C5CC5)nn34)cc2)n1
Marked response: 1

Exam item: Please give the documented efflux ratio at 1 h, 10 µM of O=C(Nc1nc2cccc(-c3ccc(NCc4ccccc4)nc3)n2n1)C1CC1
Marked response: 0.9

Exam item: Please give the documented efflux ratio at 1 h, 10 µM of O=C(NCCc1cnn(-c2ccccc2)c1)c1ccc(-c2cccc3nc(NC(=O)C4CC4)nn23)cc1
Marked response: 7.38

Exam item: Please give the documented efflux ratio at 1 h, 10 µM of O=C(Nc1nc2cccc(-c3ccc(OCc4ccccc4)c(F)c3)n2n1)C1CC1
Marked response: 0.91

Exam item: Please give the documented efflux ratio at 1 h, 10 µM of O=C(Nc1nc2cccc(-c3ccc4c(ccn4C(=O)CCc4ccccc4)c3)n2n1)C1CC1
Marked response: 1
